Values were extracted from patent US20230100367A1.

What pEC50 was measured for each of the following?
- Tested on: Cisd2 promoter with firefly luciferase reporter (HEK293-CISD2)
- experimental_details: Cisd2-luciferase reporter assay
- Type: cell-based
- test_parameters: Homo sapiens; HEK293-CISD2 cells, 24 h incubation, luciferase activity
pEC50: −log10 of the molar value.

Kindly note: Cisd2 promoter with firefly luciferase reporter (HEK293-CISD2), CC(=O)c1c(N)sc(C(=O)Nc2ccc(F)cc2)c1C [Compound 32] , pEC50 value reported: > 6.00

Note to self: pEC50 of COC(=O)c1cc(C(=O)Nc2ccc(C)cc2C)sc1N [Compound 22] with Cisd2 promoter with firefly luciferase reporter (HEK293-CISD2) was 5.00 to 6.00

Bench note, Cisd2 promoter with firefly luciferase reporter (HEK293-CISD2): entry CC(=O)c1c(N)sc(C(=O)Nc2ccccc2)c1C [Compound 31] , its pEC50 = > 6.00

The reported Cisd2 promoter with firefly luciferase reporter (HEK293-CISD2) pEC50 of COC(=O)c1c(N)sc(C(=O)Nc2ccc(C)cc2C)c1C [Compound 1] is > 6.00

Kindly note: Cisd2 promoter with firefly luciferase reporter (HEK293-CISD2), COC(=O)c1c(N)sc(C(=O)Nc2cccc(OC)c2)c1C [Compound 20] , pEC50 value reported: > 6.00

pEC50 for Cisd2 promoter with firefly luciferase reporter (HEK293-CISD2) with input COC(=O)c1c(N)sc(C(=O)Nc2cccnc2)c1C [Compound 3] equals > 6.00

# COC(=O)c1c(N)sc(C(=O)Nc2ccccc2)c1C [Compound 9] with Cisd2 promoter with firefly luciferase reporter (HEK293-CISD2): pEC50 is > 6.00

pEC50 on Cisd2 promoter with firefly luciferase reporter (HEK293-CISD2) for COC(=O)c1c(N)sc(C(=O)Nc2ccc(OC)cc2)c1C [Compound 6] is > 6.00

Hey, Cisd2 promoter with firefly luciferase reporter (HEK293-CISD2) data for COC(=O)c1c(N)sc(C(=O)Nc2c(C)cc(C)cc2C)c1C [Compound 17] : pEC50 came out at 5.00 to 6.00

GET /values?item= CCOC(=O)c1cccc(NC(=O)c2sc(N)c(C(=O)OCC)c2C)c1 [Compound 26] &system= Cisd2 promoter with firefly luciferase reporter (HEK293-CISD2) returns pEC50: 5.00 to 6.00
